- Species on record: Homo sapiens
- experiment.description: Selectivity ratio of IC50 for inhibition of N-terminal GST-fused human wild type LRRK2 to IC50 for inhibition of N-terminal GST-fused human […] mutant
The threshold is 20. Values of Ratio IC50 beneath it are tagged Met; values meeting or exceeding it are tagged Not met.

Please check: Ratio IC50 for CC1=C(C(=O)Nc2ccc3[nH]ncc3c2)Cn2nnnc2N1C(=O)N(C)C , strictly under 20 or not?
Met

Please check: Ratio IC50 for CC1=C(C(=O)Nc2ccc3[nH]nc(C)c3c2)Cn2nnnc2N1C , strictly under 20 or not?
Met

Please check: Ratio IC50 for CC1=C(C(=O)Nc2ccc3[nH]c(=O)[nH]c3c2)Cn2nnnc2N1C , strictly under 20 or not?
Not met

Please check: Ratio IC50 for CC1=C(C(=S)Nc2ccc3[nH]ncc3c2)Cn2nnnc2N1C , strictly under 20 or not?
Met

Please check: Ratio IC50 for CC1=C(C(=O)Nc2ccc3[nH]ncc3c2)Cn2nnnc2N1C , strictly under 20 or not?
Met

Please check: Ratio IC50 for CCC1=C(C(=O)Nc2ccc3[nH]ncc3c2)Cn2nnnc2N1C , strictly under 20 or not?
Met

Please check: Ratio IC50 for CC1=C(C(=O)Nc2ccc3[nH]nc(C)c3c2)[C@H](C)n2nnnc2N1C , strictly under 20 or not?
Not met

Please check: Ratio IC50 for CC1=C(C(=O)Nc2ccc3[nH]nc(-c4cc(N5CCOCC5)ncn4)c3c2)Cn2nnnc2N1C , strictly under 20 or not?
Met

* * *

Exercise: state measured pIC50 for each of the molecules provided.
- system.name: Leucine-rich repeat serine/threonine-protein kinase 2 (Homo sapiens, UniProt Q5S007)
- Sequence (Q5S007 whole entry, the tested form may be a part): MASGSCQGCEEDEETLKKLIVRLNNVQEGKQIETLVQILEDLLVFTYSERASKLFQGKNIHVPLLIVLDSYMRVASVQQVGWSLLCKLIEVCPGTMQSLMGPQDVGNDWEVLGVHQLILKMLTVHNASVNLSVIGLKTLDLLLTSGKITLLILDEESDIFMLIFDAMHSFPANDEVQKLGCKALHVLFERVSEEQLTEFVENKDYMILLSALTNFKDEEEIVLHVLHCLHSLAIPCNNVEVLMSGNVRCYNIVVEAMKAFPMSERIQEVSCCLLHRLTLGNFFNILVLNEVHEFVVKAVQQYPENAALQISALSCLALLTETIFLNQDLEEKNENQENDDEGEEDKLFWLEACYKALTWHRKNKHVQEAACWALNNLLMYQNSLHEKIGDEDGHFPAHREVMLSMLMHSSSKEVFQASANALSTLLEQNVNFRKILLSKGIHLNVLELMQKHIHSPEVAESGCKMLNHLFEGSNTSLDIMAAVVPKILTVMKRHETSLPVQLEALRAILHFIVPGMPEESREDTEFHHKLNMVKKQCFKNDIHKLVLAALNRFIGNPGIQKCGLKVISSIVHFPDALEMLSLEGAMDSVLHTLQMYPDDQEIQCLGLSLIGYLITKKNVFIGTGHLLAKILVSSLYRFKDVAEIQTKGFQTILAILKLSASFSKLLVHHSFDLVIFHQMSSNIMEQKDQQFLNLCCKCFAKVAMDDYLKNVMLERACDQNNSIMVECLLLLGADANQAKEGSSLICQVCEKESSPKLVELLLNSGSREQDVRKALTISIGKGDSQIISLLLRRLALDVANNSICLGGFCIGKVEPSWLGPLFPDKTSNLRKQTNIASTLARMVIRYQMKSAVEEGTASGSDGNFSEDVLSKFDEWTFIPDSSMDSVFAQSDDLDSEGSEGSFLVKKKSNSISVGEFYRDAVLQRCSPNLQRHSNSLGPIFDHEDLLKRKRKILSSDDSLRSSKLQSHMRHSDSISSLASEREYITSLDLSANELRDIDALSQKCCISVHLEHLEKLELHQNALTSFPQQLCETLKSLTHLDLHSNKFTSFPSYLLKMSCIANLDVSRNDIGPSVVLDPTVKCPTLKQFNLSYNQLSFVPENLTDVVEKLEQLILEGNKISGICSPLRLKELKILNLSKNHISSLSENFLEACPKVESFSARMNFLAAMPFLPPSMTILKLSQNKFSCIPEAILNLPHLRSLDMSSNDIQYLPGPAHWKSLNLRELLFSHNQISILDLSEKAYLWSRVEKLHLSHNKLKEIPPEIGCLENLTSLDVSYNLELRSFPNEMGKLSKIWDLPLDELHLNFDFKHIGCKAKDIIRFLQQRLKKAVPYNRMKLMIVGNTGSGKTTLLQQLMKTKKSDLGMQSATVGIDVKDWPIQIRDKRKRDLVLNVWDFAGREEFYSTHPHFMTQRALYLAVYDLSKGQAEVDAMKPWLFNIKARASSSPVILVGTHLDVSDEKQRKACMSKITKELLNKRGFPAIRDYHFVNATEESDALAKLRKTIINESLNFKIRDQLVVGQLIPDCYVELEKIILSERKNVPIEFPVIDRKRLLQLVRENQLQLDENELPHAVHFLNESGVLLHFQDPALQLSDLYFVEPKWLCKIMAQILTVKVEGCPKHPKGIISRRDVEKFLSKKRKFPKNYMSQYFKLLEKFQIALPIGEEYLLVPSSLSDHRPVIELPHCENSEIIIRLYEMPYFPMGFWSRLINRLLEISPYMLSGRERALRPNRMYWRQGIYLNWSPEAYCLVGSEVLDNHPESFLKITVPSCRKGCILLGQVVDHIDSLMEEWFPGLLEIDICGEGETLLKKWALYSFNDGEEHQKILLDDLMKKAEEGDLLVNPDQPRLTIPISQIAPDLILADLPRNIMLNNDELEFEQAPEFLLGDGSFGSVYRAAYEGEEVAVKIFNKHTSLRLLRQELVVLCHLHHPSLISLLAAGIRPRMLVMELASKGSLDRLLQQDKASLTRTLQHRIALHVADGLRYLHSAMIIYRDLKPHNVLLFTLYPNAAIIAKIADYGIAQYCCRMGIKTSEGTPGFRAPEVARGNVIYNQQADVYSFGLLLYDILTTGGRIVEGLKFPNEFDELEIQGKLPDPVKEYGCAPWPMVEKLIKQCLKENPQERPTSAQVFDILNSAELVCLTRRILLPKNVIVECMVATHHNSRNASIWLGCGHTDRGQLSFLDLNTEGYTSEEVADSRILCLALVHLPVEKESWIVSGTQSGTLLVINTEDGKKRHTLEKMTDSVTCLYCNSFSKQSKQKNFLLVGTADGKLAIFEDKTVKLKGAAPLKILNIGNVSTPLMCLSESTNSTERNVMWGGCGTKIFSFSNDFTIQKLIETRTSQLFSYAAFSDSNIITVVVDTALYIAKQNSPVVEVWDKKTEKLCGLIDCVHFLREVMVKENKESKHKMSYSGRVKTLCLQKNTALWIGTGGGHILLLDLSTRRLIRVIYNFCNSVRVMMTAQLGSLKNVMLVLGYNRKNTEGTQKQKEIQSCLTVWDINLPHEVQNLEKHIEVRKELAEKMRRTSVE
- experiment.description: Inhibition of N-terminal GST-fused human wild type LRRK2 using fluorescein-labeled LRRKtide as substrate preincubated for 15 mins followed by substrate addition and measured after 1 hr by TR-FRET assay
pIC50 here is simply -log10 of the concentration when that concentration is written in mol/L.

I would be grateful if you could share the reported pIC50 for CC1=C(C(=O)Nc2ccc3[nH]nc(-c4ccnc(N5CCOCC5)c4)c3c2)C(C)(C)n2nnnc2N1C .
9.52

I would be grateful if you could share the reported pIC50 for CC1=C(C(=O)Nc2ccc3[nH]ncc3c2)Cn2nnnc2N1c1ccccc1 .
8.24

I would be grateful if you could share the reported pIC50 for CC1=C(C(=O)Nc2ccc3[nH]nc(C)c3c2)[C@H](C)n2nnnc2N1C .
5.91

I would be grateful if you could share the reported pIC50 for CC1=C(C(=O)Nc2ccc3[nH]nc(-c4ccc(S(N)(=O)=O)cc4)c3c2)Cn2nnnc2N1C .
9.15

I would be grateful if you could share the reported pIC50 for CC(=O)N1C(C)=C(C(=O)Nc2ccc3[nH]ncc3c2)Cn2nnnc21 .
5.60

I would be grateful if you could share the reported pIC50 for CC1=C(C(=O)Nc2ccc3[nH]ncc3c2)C(C)(C)n2nnnc2N1C .
5.89

I would be grateful if you could share the reported pIC50 for CC1=C(C(=O)Nc2ccc3[nH]ncc3c2)[C@@H](C)n2nnnc2N1C .
7.15

I would be grateful if you could share the reported pIC50 for CC1=C(C(=O)Nc2ccc3[nH]nc(-c4ccncc4)c3c2)Cn2nnnc2N1C .
8.05

I would be grateful if you could share the reported pIC50 for CCN1C(C)=C(C(=O)Nc2ccc3[nH]ncc3c2)Cn2nnnc21 .
6.06

I would be grateful if you could share the reported pIC50 for CC1=C(C(=O)Nc2ccc3[nH]ncc3c2)Cn2nnnc2N1CCN1CCOCC1 .
5.21

I would be grateful if you could share the reported pIC50 for CC1=C(C(=O)Nc2ccc3[nH]nc(C)c3c2)Cn2nnnc2N1C .
6.92

I would be grateful if you could share the reported pIC50 for CC1=C(C(=O)Nc2ccc3[nH]nc(-c4ccccc4)c3c2)C(C)(C)n2nnnc2N1C .
8.18

I would be grateful if you could share the reported pIC50 for CC1=C(C(=O)Nc2ccc3[nH]nc(-c4cc(N5CCOCC5)ncn4)c3c2)Cn2nnnc2N1C .
9.06

I would be grateful if you could share the reported pIC50 for CC1=C(C(=O)Nc2ccc3c(c2)C(=O)NC3=O)[C@@H](C)n2nnnc2N1C .
5.55

I would be grateful if you could share the reported pIC50 for CC1=C(C(=O)Nc2ccc3c(N)nccc3c2)[C@@H](C)n2nnnc2N1C .
6.24

I would be grateful if you could share the reported pIC50 for CC1=C(C(=O)Nc2ccc3[nH]c(=O)n(C)c3c2)[C@@H](C)n2nnnc2N1C .
5.54

I would be grateful if you could share the reported pIC50 for CC1=C(C(=O)Nc2ccc3[nH]ncc3c2)Cn2nnnc2N1C(=O)N(C)C .
6.05

I would be grateful if you could share the reported pIC50 for CC1=C(C(=O)Nc2ccc3[nH]nc(-c4ccnc(N5CCOCC5)c4)c3c2)[C@H](C)n2nnnc2N1C .
9.00

I would be grateful if you could share the reported pIC50 for CC1=C(C(=O)Nc2ccc3[nH]nc(C)c3c2)[C@@H](C)n2nnnc2N1C .
7.70

I would be grateful if you could share the reported pIC50 for CC1=C(C(=O)Nc2ccc3[nH]nc(Br)c3c2)Cn2nnnc2N1C .
7.02

I would be grateful if you could share the reported pIC50 for CCC1=C(C(=O)Nc2ccc3[nH]ncc3c2)Cn2nnnc2N1C .
6.27

I would be grateful if you could share the reported pIC50 for CC1=C(C(=O)Nc2ccc3[nH]nc(C(N)=O)c3c2)Cn2nnnc2N1C .
6.90

I would be grateful if you could share the reported pIC50 for CC1=C(C(=O)Nc2ccc3[nH]nc(NC(=O)c4ccccc4)c3c2)Cn2nnnc2N1C .
6.97

I would be grateful if you could share the reported pIC50 for CC1=C(C(=O)Nc2ccc3c(c2)CNC3=O)[C@@H](C)n2nnnc2N1C .
5.77

I would be grateful if you could share the reported pIC50 for CC1=C(C(=O)Nc2ccc3[nH]ncc3c2)Cn2nnnc2N1C .
6.29

I would be grateful if you could share the reported pIC50 for CC1=C(C(=O)Nc2ccc3[nH]nc(-c4nc5ccccc5[nH]4)c3c2)Cn2nnnc2N1C .
9.28

I would be grateful if you could share the reported pIC50 for CC1=C(C(=O)Nc2ccc3[nH]nc(C)c3c2)C(C)(C)n2nnnc2N1C .
6.82

I would be grateful if you could share the reported pIC50 for CC1=C(C(=O)Nc2ccc3[nH]ncc3c2)[C@H](C)n2nnnc2N1C .
6.52

* * *

- system.name: Leucine-rich repeat serine/threonine-protein kinase 2 (Homo sapiens)
- experiment.description: Inhibition of human wild type LRRK2 expressed in HEK293 cells assessed as reduction in pSer935 phosphorylation incubated for 2 hrs by HTRF analysis
- Type: cell-based
pIC50: −log10 of the molar value.
Record t whenever pIC50 is at 6 or higher; record f when lower.

Reported pIC50 reaches at least 6 for CC1=C(C(=O)Nc2ccc3[nH]nc(C)c3c2)[C@@H](C)n2nnnc2N1C ?
f

Reported pIC50 reaches at least 6 for CC1=C(C(=O)Nc2ccc3[nH]nc(-c4ccnc(N5CCOCC5)c4)c3c2)Cn2nnnc2N1C ?
t

Reported pIC50 reaches at least 6 for CC1=C(C(=O)Nc2ccc3[nH]nc(-c4nc5ccccc5[nH]4)c3c2)Cn2nnnc2N1C ?
f

Reported pIC50 reaches at least 6 for CC1=C(C(=O)Nc2ccc3[nH]nc(-c4ccnc(N5CCOCC5)c4)c3c2)C(C)(C)n2nnnc2N1C ?
t

Reported pIC50 reaches at least 6 for CC1=C(C(=O)Nc2ccc3[nH]ncc3c2)[C@@H](C)n2nnnc2N1C ?
f

Reported pIC50 reaches at least 6 for CC1=C(C(=O)Nc2ccc3[nH]nc(-c4ccnc(N5CCOCC5)c4)c3c2)[C@@H](C)n2nnnc2N1C ?
t

* * *

- system.name: Leucine-rich repeat serine/threonine-protein kinase 2 (Homo sapiens, UniProt Q5S007, G2019S)
- Sequence (Q5S007 whole entry G2019S, the tested form may be a part): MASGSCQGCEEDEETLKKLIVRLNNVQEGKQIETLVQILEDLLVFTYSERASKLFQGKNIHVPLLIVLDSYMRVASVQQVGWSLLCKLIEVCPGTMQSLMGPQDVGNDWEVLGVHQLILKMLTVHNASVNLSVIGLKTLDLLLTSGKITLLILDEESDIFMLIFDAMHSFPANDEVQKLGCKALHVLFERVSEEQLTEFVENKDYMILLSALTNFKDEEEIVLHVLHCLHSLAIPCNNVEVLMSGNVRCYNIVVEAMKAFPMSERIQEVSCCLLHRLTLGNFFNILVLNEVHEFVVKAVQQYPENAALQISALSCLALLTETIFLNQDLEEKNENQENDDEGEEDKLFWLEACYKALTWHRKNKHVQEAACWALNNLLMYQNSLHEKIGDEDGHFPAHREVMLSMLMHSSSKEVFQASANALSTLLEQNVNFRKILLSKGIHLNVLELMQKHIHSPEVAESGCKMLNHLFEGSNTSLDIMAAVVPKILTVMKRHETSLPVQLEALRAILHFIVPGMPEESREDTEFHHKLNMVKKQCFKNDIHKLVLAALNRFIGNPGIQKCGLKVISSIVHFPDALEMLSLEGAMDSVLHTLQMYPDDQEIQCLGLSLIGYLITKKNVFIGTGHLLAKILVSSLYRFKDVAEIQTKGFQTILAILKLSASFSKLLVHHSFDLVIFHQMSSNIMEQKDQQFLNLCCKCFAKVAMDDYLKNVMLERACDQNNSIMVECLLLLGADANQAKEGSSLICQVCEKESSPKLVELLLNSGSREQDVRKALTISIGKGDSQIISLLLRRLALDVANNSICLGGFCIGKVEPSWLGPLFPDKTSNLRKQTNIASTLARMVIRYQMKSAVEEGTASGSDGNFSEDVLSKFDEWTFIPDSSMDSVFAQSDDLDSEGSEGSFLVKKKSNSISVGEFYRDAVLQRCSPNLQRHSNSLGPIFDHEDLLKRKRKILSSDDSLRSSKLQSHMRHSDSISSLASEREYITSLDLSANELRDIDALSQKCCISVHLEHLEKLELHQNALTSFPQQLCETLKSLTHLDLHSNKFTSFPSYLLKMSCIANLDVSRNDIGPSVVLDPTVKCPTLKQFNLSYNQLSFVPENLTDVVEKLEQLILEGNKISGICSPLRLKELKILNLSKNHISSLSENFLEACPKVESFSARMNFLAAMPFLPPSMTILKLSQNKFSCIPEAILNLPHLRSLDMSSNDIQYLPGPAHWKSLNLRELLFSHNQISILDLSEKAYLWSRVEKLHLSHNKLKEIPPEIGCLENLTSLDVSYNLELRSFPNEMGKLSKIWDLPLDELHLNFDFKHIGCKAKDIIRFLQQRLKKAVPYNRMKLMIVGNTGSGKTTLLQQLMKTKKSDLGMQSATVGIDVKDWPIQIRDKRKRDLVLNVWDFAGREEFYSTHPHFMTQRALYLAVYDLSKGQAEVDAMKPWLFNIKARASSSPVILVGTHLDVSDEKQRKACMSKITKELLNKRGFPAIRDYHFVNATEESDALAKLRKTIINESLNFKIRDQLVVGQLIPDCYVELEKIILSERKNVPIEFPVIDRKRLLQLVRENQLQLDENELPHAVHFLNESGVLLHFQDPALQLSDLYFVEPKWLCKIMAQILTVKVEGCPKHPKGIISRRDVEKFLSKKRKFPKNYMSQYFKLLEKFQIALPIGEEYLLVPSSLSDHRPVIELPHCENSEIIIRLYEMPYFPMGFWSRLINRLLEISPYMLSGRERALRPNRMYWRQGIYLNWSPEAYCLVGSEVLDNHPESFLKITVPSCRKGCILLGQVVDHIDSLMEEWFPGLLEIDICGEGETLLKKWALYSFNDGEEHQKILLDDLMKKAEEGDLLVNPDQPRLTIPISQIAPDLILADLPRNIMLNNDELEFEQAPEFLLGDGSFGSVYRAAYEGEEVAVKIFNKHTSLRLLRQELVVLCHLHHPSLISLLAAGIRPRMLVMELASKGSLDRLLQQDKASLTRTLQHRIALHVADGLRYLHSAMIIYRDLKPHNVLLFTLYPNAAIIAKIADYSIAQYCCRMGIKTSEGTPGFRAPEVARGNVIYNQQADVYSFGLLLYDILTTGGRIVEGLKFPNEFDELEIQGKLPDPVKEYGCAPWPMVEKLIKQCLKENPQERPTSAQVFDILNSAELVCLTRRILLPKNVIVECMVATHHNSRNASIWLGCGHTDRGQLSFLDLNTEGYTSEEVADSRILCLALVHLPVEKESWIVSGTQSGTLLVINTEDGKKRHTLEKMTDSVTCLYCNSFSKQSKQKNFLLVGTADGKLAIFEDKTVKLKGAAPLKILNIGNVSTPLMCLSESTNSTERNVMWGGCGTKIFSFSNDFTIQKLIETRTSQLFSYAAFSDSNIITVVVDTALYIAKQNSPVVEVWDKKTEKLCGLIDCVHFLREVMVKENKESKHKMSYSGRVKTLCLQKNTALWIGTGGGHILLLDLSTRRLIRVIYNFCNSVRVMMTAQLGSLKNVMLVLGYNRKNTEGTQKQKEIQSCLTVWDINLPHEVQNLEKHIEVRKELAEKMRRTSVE
- experiment.description: Inhibition of N-terminal GST-fused human LRRK2 G2019S mutant using fluorescein-labeled LRRKtide as substrate preincubated for 15 mins followed by substrate addition and measured after 1 hr by TR-FRET assay
Exercise: state measured log10(IC50) for each of the compounds provided.
// do not treat as linear: log10 of IC50, unit nM

I would be grateful if you could share the reported log10(IC50) for CC1=C(C(=O)Nc2ccc3c(c2)C(=O)NC3=O)[C@@H](C)n2nnnc2N1C .
1.74

I would be grateful if you could share the reported log10(IC50) for CCC1=C(C(=O)Nc2ccc3[nH]ncc3c2)Cn2nnnc2N1C .
2.39

I would be grateful if you could share the reported log10(IC50) for CCN1C(C)=C(C(=O)Nc2ccc3[nH]ncc3c2)Cn2nnnc21 .
1.76

I would be grateful if you could share the reported log10(IC50) for CC1=C(C(=O)Nc2ccc3[nH]nc(C)c3c2)Cn2nnnc2N1C .
1.00

I would be grateful if you could share the reported log10(IC50) for CC1=C(C(=O)Nc2ccc3[nH]nc(NC(=O)c4ccccc4)c3c2)Cn2nnnc2N1C .
0.48

I would be grateful if you could share the reported log10(IC50) for CC1=C(C(=O)Nc2ccc3[nH]c(=O)[nH]c3c2)Cn2nnnc2N1C .
2.38

I would be grateful if you could share the reported log10(IC50) for CC1=C(C(=O)Nc2ccc3c(c2)CNC3=O)[C@@H](C)n2nnnc2N1C .
1.51

I would be grateful if you could share the reported log10(IC50) for CC1=C(C(=O)Nc2ccc3[nH]nc(C(N)=O)c3c2)Cn2nnnc2N1C .
0.78

I would be grateful if you could share the reported log10(IC50) for CC1=C(C(=O)Nc2ccc3[nH]nc(-c4cc(N5CCOCC5)ncn4)c3c2)Cn2nnnc2N1C .
-0.40

Values compiled from ChEMBL document CHEMBL5244270.
